Cited source: ChEMBL document CHEMBL1201862

Readings of GI50 for the listed compounds
Tested on: SNB-19
assay.summary: NCI tumour cell line growth inhibition, 48 h
Active and inactive are the calls of the source. Cut-off read from the data, not from the text of the source: active = GI50 up to about 1.1 µM and inactive = higher.

Query: Query (compound): N#CC(C#N)=Cc1c[nH]c(=O)[nH]c1=O ; field requested: GI50
Result: > 100 µM (inactive)

Query: Would you mind doing CCNc1ncnc2sc(SCc3ccccc3)nc12 as well?
Result: > 100 µM (inactive)

Query: Try the compound Cc1cc(NS(=O)(=O)c2ccc(NC(=O)c3ccc4nc5ccccc5c(Nc5ccc(S(=O)(=O)N=C(N)N)cc5)c4c3)cc2)no1
Result: 29 µM (inactive)

Query: Similarly, CS(=O)(=O)OCCCCOS(=O)(=O)CF ?
Result: > 100 µM (inactive)

Query: Please answer likewise for N#Cc1ccc(/C=N\N2C(=O)c3ccccc3C2=O)cc1
Result: > 100 µM (inactive)

Query: Try this compound too: O=c1[nH]nc(Cc2c[nH]c3ccccc23)o1
Result: > 100 µM (inactive)

Query: Also O=S(O)CCCCSSCc1ccccc1CSSCCCCS(=O)O , if possible.
Result: 56.2 µM (inactive)

Query: // next record C=CC1(c2ccc(Cl)c(Cl)c2)OCCO1
Result: > 100 µM (inactive)

Query: Would you mind doing CCOC(=O)C1=CN/C(=C(/C)C(=O)OC)SC1C(=O)OCC (stereo unspecified) as well?
Result: 98.2 µM (inactive)

----------
Tested on: SW-620
assay.summary: NCI tumour cell line growth inhibition, 48 h
Activity calls are given as the source filed them. Cut-off read from the data, not from the text of the source: active = GI50 up to about 1.1 µM and inactive = higher.
I would appreciate it if you answered using one of these outcomes: active, inactive

| molecule | target.under.test | class.label |
| --- | --- | --- |
| O=C(COc1ccc(OCC(=O)N2C(=O)CN(c3ccccc3)C2=S)cc1)N1C(=O)CN(c2ccccc2)C1=S | SW-620 | inactive |
| CCCNc1ncnc2c1ncn2C | SW-620 | inactive |
| C1OCN2c3nonc3N3COCN4c5nonc5N1C2C43 (stereo unspecified) | SW-620 | inactive |
| COC1(OC)c2no[n+]([O-])c2C(OC)(OC)c2c1no[n+]2[O-] | SW-620 | inactive |
| c1nnc(NCNc2nncs2)s1 | SW-620 | inactive |

API: the following record is the query input.
Query: What did this assay record as the result for O=[N+]([O-])c1cc2ncc(-c3ccccc3)c(O)c2cc1/C(Cl)=C/c1ccccc1 ?
Result: inactive

----------
Tested on: OVCAR-3
assay.summary: NCI tumour cell line growth inhibition, 48 h
Calls of active or inactive are those of the source. Cut-off read from the data, not from the text of the source: active = GI50 up to about 1.1 µM and inactive = higher.
Mark one answer only. Choices: true = active, false = inactive

Query: I would be grateful if you could indicate the recorded call for O=S(=O)(O)c1cc(/N=N/c2cccc3ccccc23)c(O)c2ncccc12 .
Result: false

Query: Request: COC(=O)c1cc(C)n2c1CS[C@@H]2c1ccccc1
Result: false

Query: Next compound up: CCCCCCCCC/C=C1/CC(CO)(COC(=O)c2ccccc2)OC1=O (centres undefined)
Result: false

Query: CCOC(=O)C/C(N)=C(\C#N)C(=O)OCC ?
Result: false

Query: Also, COc1ccc(OC)c2c1C=CC(Br)=CC2 please.
Result: true

Query: Query O=C(N/N=C\C(F)(F)F)c1ccncc1 next
Result: false

Query: Please answer likewise for CS(=O)(=O)N(CCC#N)c1ccc(/C=N/NC(=O)CC(=O)Nc2cccc(Cl)c2)cc1
Result: false

Query: Can you handle C[C@]12CCC3[C@@H](CC[C@@H]4c5nonc5CC[C@]34C)C1CC[C@@H]2O (some centres undefined) next?
Result: false

Query: Check COc1ccc(Nc2ccc3ccccc3c2-c2c(O)ccc3ccccc23)cc1 too.
Result: false

----------
System: SW-620
assay.summary: NCI tumour cell line growth inhibition, 48 h
Calls of active or inactive are those of the source. Cut-off read from the data, not from the text of the source: active = GI50 up to about 1.1 µM and inactive = higher.
The categories you may choose from are TRUE = active, FALSE = inactive

Example cases with answers are listed next.
| compound | target.under.test | class.label |
| --- | --- | --- |
| CNc1ncnc2c1ncn2C1C=CC(COS(N)(=O)=O)C1 (centres undefined) | SW-620 | FALSE |
| O=C1NCCS(=O)(=O)N2CCC[C@@H]12 | SW-620 | FALSE |
| COc1ccc(OC)c2c(C(=O)O)c(Cc3ccccc3)ccc12 | SW-620 | FALSE |
| N#Cc1ncn(CCO)c1N | SW-620 | FALSE |
| O=C(CC/C(CC(=O)c1ccc(Br)cc1)=N\O)Nc1ccc(Cl)c(Cl)c1 | SW-620 | FALSE |

Query: Kindly provide the recorded test outcome for the following compound: O=C1C=C(Nc2ccccc2C(=O)CC(=O)C(=O)Nc2ccc(Cl)cc2)c2ccccc2C1=O
Result: FALSE

Query: Would you mind doing O=C(O)C1C2C=CC(C2)C1c1ccccc1 (centres undefined) as well?
Result: FALSE

Query: Proceed to CC1C2(C)OC(=N)C(C#N)(C(C)O2)C1(C#N)C#N (centres undefined)
Result: FALSE

----------
GI50 by entry:
Test system: SK-OV-3
assay.summary: NCI tumour cell line growth inhibition, 48 h
Calls of active or inactive are those of the source. Rule as the data show it: active = GI50 up to about 1.1 µM and inactive = higher.

// below: answered molecules
| molecule | target.under.test | GI50 |
| --- | --- | --- |
| O=C(c1ccccc1)N1CCC(Nc2cccnc2)O1 (configuration not stated) | SK-OV-3 | > 100 µM (inactive) |
| O=C1C(Cl)=C(N2CCN(c3ccccn3)CC2)C(=O)c2c(O)ccc(O)c21 | SK-OV-3 | 8.32 µM (inactive) |
| N#Cc1ccccc1C#C/C=C\C#Cc1ccccn1 | SK-OV-3 | 25.1 µM (inactive) |
| CC(C)(C)OC(=O)NC(CSCc1ccc(C(=O)c2ccccc2)cc1)C(=O)N1CCN(CCCCN2c3ccccc3Sc3cc(N=[N+]=[N-])ccc32)CC1 (configuration not stated) | SK-OV-3 | > 100 µM (inactive) |

Query: Would you kindly share the measured GI50 for O=C(O)c1cc(-c2ccc3cc(O)c(O)cc3c2)ccc1O ?
Result: > 12.5 µM (inactive)

Query: And for COC1C=C(Nc2cccc(Cl)c2)C(=O)C1 (configuration not stated) ?
Result: 48.8 µM (inactive)

Query: Next: O=C1NC(=S)N/C1=C\c1ccc(Br)s1
Result: > 100 µM (inactive)

----------
System: UACC-257
assay.summary: NCI tumour cell line growth inhibition, 48 h
Calls of active or inactive are those of the source. Cut-off read from the data, not from the text of the source: active = GI50 up to about 1.1 µM and inactive = higher.
Answer with one of the outcomes given here: True for active, False for inactive

Query: What call does the record list for C1OCN2c3nonc3N3COCN4c5nonc5N1C2C43 (stereo not drawn) ?
Result: False

Query: Input OB(O)c1ccccc1C#Cc1ccccc1B(O)O
Result: True

Query: Next: CCOC(=O)CCCn1nnc(C(=O)OCC)c1C(=O)OCC
Result: False

----------
Test system: TK-10
assay.summary: NCI tumour cell line growth inhibition, 48 h
Active and inactive are the calls of the source. Cut-off read from the data, not from the text of the source: active = GI50 up to about 1.1 µM and inactive = higher.
A correct response names exactly one class from active, inactive

See these solved cases before continuing.
| compound | class.label |
| --- | --- |
| C[C@@H]1CCC2C(C)(C)C(/C=C\C=O)C3(C)OC213 (some centres not stated) | inactive |
| CCOC(=O)C1=CN/C(=C(/C)C(=O)OC)SC1C(=O)OCC (configuration not stated) | inactive |
| Fc1c(F)c(C(F)(F)F)c(F)c(F)c1N/N=C\c1c[nH]c2ccccc12 | inactive |

Query: Would you mind telling me which call this test gave c1nc2nc[nH]c(SSc3[nH]cnc4ncnc3-4)c-2n1 ?
Result: active

Query: Try the compound Cc1ccc([S+]([O-])C[C@](NC(=O)OCc2ccccc2)(Sc2ccccc2)C(F)F)cc1 (some centres not stated)
Result: inactive

Query: Also need COc1ccc(OC)c2c1C=CC(Br)=CC2 , thanks.
Result: active

Query: Another compound: O=C1C2C3C=CC(C2C(=O)N1COP(=O)(O)O)C1C2C(=O)N(COP(=O)(O)O)C(=O)C2C31 (configuration not stated)
Result: inactive

----------
Test system: SK-MEL-5
assay.summary: NCI tumour cell line growth inhibition, 48 h
Activity calls are given as the source filed them. No stated cut-off is given here; in the data, active = GI50 up to about 1.1 µM and inactive = higher.
parameter: GI50

Worked cases, answers included:
| compound | parameter | assay.result |
| --- | --- | --- |
| Cc1cc(C)c2c(c1)C(=O)/C(=C/c1ccccc1C(=O)O)C2 | GI50 | 59.8 µM (inactive) |
| C=C1c2nc3ccccc3n2C=C(c2ccccc2)N1c1ccc(OC)cc1 | GI50 | 11.1 µM (inactive) |
| O=c1c(O)c(-c2ccc(O)c(O)c2)oc2cc(O)cc(O)c12 | GI50 | 92 µM (inactive) |
| O=C(CCc1ccc(O)cc1)NCCc1ccc(O)cc1 | GI50 | > 100 µM (inactive) |

Query: // fetch SK-MEL-5 GI50 for COC(=O)[C@H](Cc1c[nH]c2ccccc12)NC(=O)OCC1OC(n2cc(C)c(=O)[nH]c2=O)CC1N=[N+]=[N-] (stereo not given in full)
Result: 31.8 µM (inactive)
